# maps each entry to its IC50
Target: human GPR91 receptor (Homo sapiens)
Construct: expressed in transfected cells; host or cells: CHO-K1 NFAT cells
Assay: Human GPR91 calcium mobilization assay
Type: cell-based
Conditions: CHO-K1 NFAT cells over expressing human GPR91 receptor; Fluo4 AM; agonist sodium succinate; flex station; read-out: hGPR91 IC50 (μM)*

Consider the worked cases shown below.
Cc1nc2ccc(Oc3ccc(Oc4cccc(CC(=O)O)c4)c(C(F)(F)F)c3)cc2n1C1COC1 [Compound A-27]: < 5 µM
O=C(O)Cc1cccc(Oc2ccc(Oc3cccc4nncn34)cc2C(F)(F)F)c1 [Compound A-17]: > 10 µM
O=C(O)Cc1cccc(Oc2ccc(Oc3cccc4ccncc34)cc2C2CC2)c1 [Compound A-38]: < 5 µM

Here is the next item to consider.
Record summary for Cc1ncc2cccc(Oc3ccc(Oc4cccc(CC(=O)O)c4)c(C(F)(F)F)c3)n12 [Compound B-3] : reported IC50 = < 5 µM

====

Molecular target: human GPR91 receptor (Homo sapiens)
Construct: expressed in transfected cells; host or cells: CHO-K1 NFAT cells
Sequence (Q9BXA5 1-334): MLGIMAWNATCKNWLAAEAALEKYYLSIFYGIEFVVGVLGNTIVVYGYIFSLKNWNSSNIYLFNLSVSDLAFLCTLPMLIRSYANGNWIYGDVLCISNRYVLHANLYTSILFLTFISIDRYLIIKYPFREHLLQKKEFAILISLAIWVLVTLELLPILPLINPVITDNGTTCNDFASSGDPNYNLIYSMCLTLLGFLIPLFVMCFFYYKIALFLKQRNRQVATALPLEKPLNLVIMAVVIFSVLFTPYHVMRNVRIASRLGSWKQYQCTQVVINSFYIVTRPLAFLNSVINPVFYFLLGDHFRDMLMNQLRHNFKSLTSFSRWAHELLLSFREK
Assay: Human GPR91 calcium mobilization assay
Format: cell-based
Settings: CHO-K1 NFAT cells over expressing human GPR91 receptor; Fluo4 AM; agonist sodium succinate; flex station; read-out: hGPR91 IC50 (μM)*
Description: Human GPR91 Calcium Mobilization Assay To determine IC50 in CHO NFAT cells over expressing human GPR91 receptor calcium mobilization assay in flex station mode was carried out. Grow CHO-K1 NFAT cells over expressing human GPR91 receptors in alpha MEM media were supplemented with 10% FBS (heat inactivated), 0.5 mg/ml of G-418, 0.5 mg/ml of Zeocin and 0.6 mg/ml of Hygromycin B. […]
Property Name: IC50

O=C(O)CCc1cccc(Oc2ccc(Oc3ccnc4ccccc34)cc2C(F)(F)F)c1: > 10 µM
O=C(O)Cc1cccc(Oc2ccc(Oc3ccc4ccn(C5COC5)c4c3)cc2C(F)(F)F)c1: < 5 µM
O=C(O)Cc1cccc(Oc2ccc(Oc3ccc4ncccc4c3)cc2C(F)(F)F)c1: 5 to 10 µM
O=C(O)Cc1cccc(Oc2ccc(Oc3ccc4nnn(C5COC5)c4c3)cc2C(F)(F)F)c1: < 5 µM
O=C(O)Cc1cccc(Oc2ccc(Oc3cccc4ccncc34)cc2C(F)(F)F)c1: < 5 µM
O=C(O)CCc1cccc(Oc2ccc(Oc3cccc4ccncc34)cc2C(F)(F)F)c1: < 5 µM
Cc1nc2ccc(Oc3ccc(Oc4cccc(CC(=O)O)c4)c(C(F)F)c3)cc2n1C1COC1: < 5 µM
NC(=O)CCc1cccc(Oc2ccc(Oc3cccc4ccncc34)cc2C(F)(F)F)c1: 5 to 10 µM
O=C(O)Cc1cccc(Oc2ccc(Oc3cccc4cncn34)cc2C(F)(F)F)c1: < 5 µM
O=C(O)CCc1cccc(Oc2ccc(Oc3cccc4cnncc34)cc2C(F)(F)F)c1: < 5 µM

Here is the next item to consider.
Record summary for `O=C(O)Cc1cccc(Oc2ccc(Oc3cnc4ncn(C5COC5)c4c3)cc2C(F)(F)F)c1` : reported IC50 = > 10 µM
